measured on: Glutamate NMDA receptor
assay details: Inhibitory activity evaluated by its ability to displace [3H]CPP from rat cortical membrane N-methyl-D-aspartate glutamate receptor at 10E-5 concentration of the compound
observed property: IC50

[
  {
    "molecule": "O=C(O)CNCC/C=C\\P(=O)(O)O",
    "observed property": "IC50",
    "measured value": "2.25 µM"
  },
  {
    "molecule": "CC(NC/C=C\\CP(=O)(O)O)C(=O)O (configuration not stated)",
    "observed property": "IC50",
    "measured value": "42.4 µM"
  }
]

###

measured on: Glutamate NMDA receptor
assay details: Inhibitory activity evaluated by its ability to displace [3H]CPP from rat cortical membrane receptor at 10E-5 concentration of the compound

[
  {
    "compound": "O=C(O)CNC/C=C/CP(=O)(O)O",
    "unit of measure": "nM",
    "IC50": 1000
  },
  {
    "compound": "O=C(O)CNCc1cccc(CP(=O)(O)O)c1",
    "unit of measure": "nM",
    "IC50": 2400
  },
  {
    "compound": "O=C(O)CNCc1ccc(CP(=O)(O)O)cc1",
    "unit of measure": "nM",
    "IC50": 2300
  },
  {
    "compound": "O=C(O)C1CN(CP(=O)(O)O)CCN1 (centres undefined)",
    "unit of measure": "nM",
    "IC50": 65
  }
]

###

measured on: Glutamate NMDA receptor (Rattus norvegicus) (UniProt P35439+Q00959+Q00960+Q00961+Q62645+Q8VHN2+Q9R1M7)
assay details: Displacement of [3H]CPP from N-methyl-D-aspartate glutamate receptor of rat cortical membranes
Type: cell membranes
Parameters: concentration or dose not given beside the values
condition details: Membrane, concentration not given here
Output True for inhibition not less than 5%; output False otherwise.

[
  {
    "compound": "O=C(O)CNCCCCP(=O)(O)O",
    "class": "True"
  },
  {
    "compound": "O=C(O)CNc1cccc(/C=C/CP(=O)(O)O)c1",
    "class": "True"
  },
  {
    "compound": "CC(C)C(NCc1cccc(CP(=O)(O)O)c1)C(=O)O (centres undefined)",
    "class": "False"
  },
  {
    "compound": "O=C(O)CNc1cccc(CCP(=O)(O)O)c1",
    "class": "False"
  },
  {
    "compound": "O=C(O)CNCCP(=O)(O)O",
    "class": "True"
  },
  {
    "compound": "O=C(O)CNc1ccccc1CP(=O)(O)O",
    "class": "True"
  },
  {
    "compound": "CC(NCc1ccccc1CP(=O)(O)O)C(=O)O (centres undefined)",
    "class": "False"
  },
  {
    "compound": "O=C(O)CNc1ccccc1P(=O)(O)O",
    "class": "True"
  },
  {
    "compound": "CC(NCc1cccc(CP(=O)(O)O)c1)C(=O)O (centres undefined)",
    "class": "True"
  },
  {
    "compound": "O=C(O)CNCCCP(=O)(O)O",
    "class": "False"
  },
  {
    "compound": "O=C(O)CNc1ccccc1/C=C/P(=O)(O)O",
    "class": "True"
  },
  {
    "compound": "O=C(O)CNCCSCP(=O)(O)O",
    "class": "True"
  },
  {
    "compound": "O=C(O)CNCC[S+]([O-])CP(=O)(O)O (centres undefined)",
    "class": "False"
  }
]

These data points were gathered from ChEMBL document CHEMBL1125433.
